target: Proteasome subunit beta (Trypanosoma cruzi) (UniProt O96673); assay: Trypanosoma cruzi proteasome chymotrypsin-like activity (TcProtChymo) assay.; type: functional; design: scale not given: in the data most compounds retested in dose-response had high values; conditions: 9.37 µM
Sequence (O96673 as listed by the source): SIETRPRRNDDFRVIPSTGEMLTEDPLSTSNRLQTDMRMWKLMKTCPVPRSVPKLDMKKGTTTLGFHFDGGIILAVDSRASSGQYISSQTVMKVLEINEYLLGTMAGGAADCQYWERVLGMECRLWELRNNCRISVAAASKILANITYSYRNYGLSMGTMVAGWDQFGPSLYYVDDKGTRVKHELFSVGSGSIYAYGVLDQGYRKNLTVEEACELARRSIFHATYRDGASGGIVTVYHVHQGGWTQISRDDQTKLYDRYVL
readout: Percent Effect (%)
Provide the reading as a plain figure in %.

Solved entries:
O=C1CN(Cc2ccc(-c3ccccc3C(=O)O)cc2)CCN1 :: 14.1
CC(C)c1cc(NC(=O)CN2CCc3c(nc(C(C)C)n3C)C2)on1 :: 17.9
O=C(c1cscn1)N1C[C@H]2CCCC(OCc3cccnc3)[C@H]2C1 (stereo partly drawn) :: 9.06
Cn1ccc(CN2CCC(CO)CC2)cc1=O :: 1.03
COCC1CN(C(=O)COc2ccccc2)Cc2cn(C)nc21 (stereo not drawn) :: 1.39
COCCN1CCc2cc(C(=O)N(C)C)c(NCC3CC3)nc2CC1 :: 8.5
Cn1cc(C(=O)NC2CCN(Cc3ccn(C)c(=O)c3)CC2)cn1 :: 3.67
c1ccc(Cc2noc(CNC3CCc4ncnn4C3)n2)cc1 (stereo not drawn) :: 8.44
CN(C)C(=O)N1CCn2nc(CNC(=O)CCC(F)(F)F)cc2C1 :: 10.3
O=C(CN1CCOC(Cn2cccn2)C1)Nc1nncs1 (stereo not drawn) :: 11.2

So, CC(=O)NCCc1ccc(C(=O)N2CCCC2c2cnn(C)c2)cc1 (stereo not drawn) ? Its Percent Effect was 11.9

Consider Cc1cc(CN(C)C(=O)NC2CCCN(c3ncccn3)C2)no1 (stereo not drawn) . Its measured Percent Effect is 2.34

GET /value?item= COc1ccc(F)cc1CN1CCCC(c2cc(C(N)=O)[nH]n2)C1 (stereo not drawn) &field=Percent Effect returns 1.61

// Cc1cccc(CN2CCN(Cc3ccccc3)CC(O)C2)n1 (stereo not drawn) : Percent Effect value = 9.14

The recorded Percent Effect for entry CC(C)NC(=O)C1CN(C(N)=O)Cc2ccnn2C1 (stereo not drawn) equals 9.91

According to the records, this molecule CC(O)CNC(=O)NCc1cccnc1OC1CCCC1 (stereo not drawn) displays Percent Effect of 2.63

// sample CNC(=O)c1cccc(NC(=O)CN2CCN(S(C)(=O)=O)CC2)c1 , its Percent Effect was 13.8

The value of Percent Effect measured for the molecule CN1CCCC[C@@H]2[C@H]1[C@@H](c1ccccc1)CCN2C(=O)c1cnccn1 turned out to be 21.2

In plain terms, Cc1cccc2c1cnn2CCCNC(=O)C(C)C has a documented Percent Effect of 6.16

molecule CC(=O)NCC(=O)N1Cc2nccn2CC(Cn2cccn2)C1 (stereo not drawn) , Percent Effect observed: 18.6

response.value for Cc1ccc(-c2nnc(CN3CCOC(Cn4cccn4)C3)o2)cc1 (stereo not drawn) (field: Percent Effect) = 7.45

----------
Biological target: Tyrosyl-tRNA synthetase, putative (Trypanosoma cruzi (strain CL Brener)) (UniProt Q4DSP6)
Sequence (whole entry): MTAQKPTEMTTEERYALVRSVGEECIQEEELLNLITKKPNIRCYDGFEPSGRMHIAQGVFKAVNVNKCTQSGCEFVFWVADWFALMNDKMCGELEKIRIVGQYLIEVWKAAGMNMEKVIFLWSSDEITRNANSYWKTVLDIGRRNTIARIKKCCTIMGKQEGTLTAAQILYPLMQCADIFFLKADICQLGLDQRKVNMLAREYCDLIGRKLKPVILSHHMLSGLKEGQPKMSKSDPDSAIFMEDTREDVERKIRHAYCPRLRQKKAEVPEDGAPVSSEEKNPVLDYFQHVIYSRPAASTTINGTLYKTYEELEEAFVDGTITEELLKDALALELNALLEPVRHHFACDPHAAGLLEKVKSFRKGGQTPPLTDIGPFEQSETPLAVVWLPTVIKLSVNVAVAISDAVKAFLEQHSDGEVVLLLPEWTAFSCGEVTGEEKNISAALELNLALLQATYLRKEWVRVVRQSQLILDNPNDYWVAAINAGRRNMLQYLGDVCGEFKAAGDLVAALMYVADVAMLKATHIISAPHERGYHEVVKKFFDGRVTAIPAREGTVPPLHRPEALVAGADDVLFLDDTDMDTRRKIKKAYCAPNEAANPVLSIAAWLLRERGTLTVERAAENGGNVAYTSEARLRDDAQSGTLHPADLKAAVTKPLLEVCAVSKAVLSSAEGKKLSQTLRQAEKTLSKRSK
Assay: Trypanosoma cruzi tyrosyl tRNA synthetase (TcYRS) _High Tyrosine SOP
Assay type: functional
Parameters: scale not given: direction of the effect not stated beside the values
Settings: 30 µM
readout: Percent Effect (%)
Report only the number, with the unit % understood.

Solved entries:
CS(=O)(=O)NCC(=O)N1CCCC1c1noc(C2CC2)n1 (stereo unspecified) :: 4.92
O=C(C[C@@H]1COC[C@H]2CN(Cc3ccc(F)cc3)C[C@@H]12)N1CCCCO1 :: 2.12
O=S(=O)(c1ccccc1)N1CCCCC1c1cc[nH]n1 (stereo unspecified) :: -3.17
CCn1cc(C(=O)N2CCCC(c3[nH]ncc3S(C)(=O)=O)C2)cn1 (stereo unspecified) :: 4.23
CCNC(=O)C1CCN(Cc2csc(-c3ccc(C)o3)n2)CC1 :: 7.29

Alright, here's another molecule for you.
For the molecule COCC(=O)N1CCN(Cc2coc(-c3cccc(F)c3)n2)CC1 , the measured Percent Effect on Tyrosyl-tRNA synthetase, putative (Trypanosoma cruzi (strain CL Brener)) (UniProt Q4DSP6) was 8.74

----------
molecular target: Tyrosyl-tRNA synthetase, putative (Trypanosoma cruzi (strain CL Brener)); test: Trypanosoma cruzi tyrosyl tRNA synthetase (TcYRS) _High Tyrosine SOP; format: functional; set-up: scale not given: in the data most compounds retested in dose-response had high values; conditions: 30 µM
A collection of molecules and their measured Percent Effect
State the answer as a number, implicitly in %.

Cc1cc(CN(C)C(=O)NC2CCN(Cc3ccccc3)C2)no1 (stereo not drawn) :: 8.33
COCCc1noc(CN2CCCC(Cn3nc(C)nc3C)C2)n1 (stereo not drawn) :: 10.3
CO[C@@H]1CC[C@@H](N(C)C(=O)COc2ccc(F)cc2)[C@H]1O :: 1.06
Cn1cc(-c2nnn3c2COC(CNCc2nccs2)C3)cn1 (stereo not drawn) :: 5.79
c1ccc(-n2ncc(CNC3CCc4ncnn4C3)n2)cc1 (stereo not drawn) :: 1.44
Cn1cc(CN2CCc3c(nc(-c4ccccn4)[nH]c3=O)C2)cn1 :: 12.8
CCC1CN(C(=O)c2ccc(Cl)cc2O)CCN1C(C)C (stereo not drawn) :: 4.79
CN(Cc1ccc(F)cc1)CC1(O)CCN(C(=O)c2ccccc2)C1 (stereo not drawn) :: 2.15
CN(CC1COc2ccccc2O1)C(=O)NCCCn1cncn1 (stereo not drawn) :: 6.37
CC(=O)N1CCN(C(=O)CCOc2ccc(C(C)C)cc2)CC1 :: 5.39

CCc1nnc2n1CCN(C(=O)c1cc3ccc(F)cc3nc1C)C2 has a reported Percent Effect of 11.7

Entry c1csc(CN2C[C@@H]3OCCN(CC4CCCO4)[C@@H]3C2)c1 (stereo partly drawn) ; Percent Effect = 5.21

----------
Catalogue of Percent Effect values
target: Protein translocase subunit SecA (Escherichia coli (strain K12)) (UniProt P10408); assay: Assay to Identify E. coli SecA ATPase Inhibitors; format: functional; set-up: scale not given: direction of the effect not stated beside the values; details: 30 µM
Sequence (P10408 whole entry): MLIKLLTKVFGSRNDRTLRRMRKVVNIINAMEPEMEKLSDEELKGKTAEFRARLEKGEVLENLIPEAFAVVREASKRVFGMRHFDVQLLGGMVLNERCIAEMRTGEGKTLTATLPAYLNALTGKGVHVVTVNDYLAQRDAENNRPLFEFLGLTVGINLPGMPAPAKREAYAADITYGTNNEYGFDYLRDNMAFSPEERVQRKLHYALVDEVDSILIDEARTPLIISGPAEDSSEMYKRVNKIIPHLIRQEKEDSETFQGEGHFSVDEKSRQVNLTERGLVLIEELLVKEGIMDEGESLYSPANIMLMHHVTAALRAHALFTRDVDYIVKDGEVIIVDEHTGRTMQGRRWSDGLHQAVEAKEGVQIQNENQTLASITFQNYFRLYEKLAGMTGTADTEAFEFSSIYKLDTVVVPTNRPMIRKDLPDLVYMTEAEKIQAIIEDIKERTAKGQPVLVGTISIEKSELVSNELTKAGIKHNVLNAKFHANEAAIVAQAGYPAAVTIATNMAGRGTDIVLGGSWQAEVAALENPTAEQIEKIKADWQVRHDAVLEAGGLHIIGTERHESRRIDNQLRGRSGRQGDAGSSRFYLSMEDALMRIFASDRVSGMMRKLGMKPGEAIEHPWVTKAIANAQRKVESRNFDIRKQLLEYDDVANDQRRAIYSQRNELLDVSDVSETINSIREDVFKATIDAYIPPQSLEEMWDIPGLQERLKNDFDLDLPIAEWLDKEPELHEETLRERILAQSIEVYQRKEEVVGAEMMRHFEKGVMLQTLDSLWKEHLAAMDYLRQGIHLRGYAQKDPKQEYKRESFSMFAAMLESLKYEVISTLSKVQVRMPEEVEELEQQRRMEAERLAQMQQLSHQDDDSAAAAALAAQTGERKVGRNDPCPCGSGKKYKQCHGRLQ
Entries with a potency or affinity are not part of this list.

Use the examples below as a reference point.
CCC(CNC(=O)c1ccc(Br)o1)N1CCc2ccccc2C1 (stereo unspecified) :: -2.45%
CC(=O)N1[C@H](CN(C)C)C[C@@H]2CN(C(=O)c3cccc(F)c3)CC[C@@H]21 :: -6.12%
CC(C)(C)n1cc(C(=O)N2CCN(Cc3ccsc3)CC2)cn1 :: -3.19%
Cn1ccnc1C(NCc1csc(Br)c1)c1ccccc1 (stereo unspecified) :: -4.88%
CN1CCN(c2ncccc2CNc2ncccc2C#N)CC1 :: -5.21%

From here, focus on the item given below.
Lab note: Cc1cccc(Nc2nccnc2C2CCCN2CC(=O)N(C)C)n1 (stereo unspecified) gave Percent Effect of -5.74%

----------
species on record: Homo sapiens; assay: To identify inhibition of the IFN signalling (Jak-Stat) pathway via expression of an eGFP reporter gene under the control of an IFN-stimulated response element (ISRE) containing MxA promoter.; assay type: functional; parameters: scale not given: direction of the effect not stated beside the values; conditions: 30 µM
Let's look at some molecules and their measured Percent Effect.
Note: unit % is implicit; provide only the numeric part.

O=C(c1n[nH]c2c1CCN(Cc1nccs1)C2)N1CCCC1 :: -0.319
CCc1nc(CN(C)C2CCN(CCc3ccccn3)C2)no1 (stereo not drawn) :: 12.5
Cc1cc(C)c(CNC(=O)N2CCN(c3cnccn3)CC2)c(=O)[nH]1 :: 11.3
CC(C)C(NC(=O)NCCNc1ccccn1)c1cccs1 (stereo not drawn) :: 8.29
Cc1ccc(CN2CCC(c3nnc(CN4CCCCC4)n3C)CC2)o1 :: 1.11
CCc1n[nH]c(C2CN(C(=O)c3nc(C)n4ccccc34)CCO2)n1 (stereo not drawn) :: -10.3
CCOC(=O)N1CCN(c2nc(NCCCO)c3ccccc3n2)CC1 :: 15.2
CN(C)S(=O)(=O)N1CCC(Oc2ccc(C#N)cc2)CC1 :: 17.2
Cc1nc(-c2ccsc2)ccc1C(=O)NCCN1CCOCC1 :: 1.25
CC(C)(C)OC(=O)NC(C)(C)c1noc(CN2CCCCC2)n1 :: 13.4

GET /value?item= COC(=O)CC(c1ccc(OC)c(OC)c1)c1oc(C)cc(=O)c1O (stereo not drawn) &field=Percent Effect returns 14.4

The recorded Percent Effect for entry COc1ccc(C(C)NC(=O)NCCCn2cncn2)cc1F (stereo not drawn) equals -15.1

Percent Effect recorded for this molecule, CCCOc1cccc(CNC(=O)CN2CCN(C)CC2C)c1 (stereo not drawn) , is 14.1

Record CCN(Cc1ccc2c(c1)OCO2)C(=O)CCc1c(C)nc(C)[nH]c1=O , field Percent Effect: 21.9

Percent Effect for Cc1csc(N2CCN(CC(=O)Nc3c(C)n[nH]c3C)CC2C)n1 (stereo not drawn) is 5.89

get_value(item= Cc1noc(C)c1CCC(=O)NC(C)c1nnc2n1CCC2 (stereo not drawn) , readout=Percent Effect) returns 3.14
